study system: T1, recombinant human NKG2A/CD94 heterodimer (extracellular domains) (human, UniProt Q13241 32-179)
T1 construct: extracellular domain; ECDs co-expressed in Expi293, purified by Ni-NTA and anti-Flag; also called HuNKG2A/huCD94; NKG2A/CD94 ECDs
T1 sequence (chain, as listed by the source, chain 1 of 2): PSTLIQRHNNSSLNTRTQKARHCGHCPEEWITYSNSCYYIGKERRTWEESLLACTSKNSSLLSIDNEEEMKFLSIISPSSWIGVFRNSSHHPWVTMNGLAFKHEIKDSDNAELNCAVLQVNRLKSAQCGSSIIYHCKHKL
T1 sequence (Q13241 32-179, chain 2 of 2): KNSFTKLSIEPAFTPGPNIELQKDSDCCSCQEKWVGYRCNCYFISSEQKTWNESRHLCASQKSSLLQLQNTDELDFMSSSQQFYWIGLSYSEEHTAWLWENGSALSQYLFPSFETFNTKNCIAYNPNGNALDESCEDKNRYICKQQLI
protocol summary: SPR (IBIS MX96), mAb captured on anti-human IgG Fc, ECD heterodimer injected, 1:1 fit
outcome measure: kon (M⁻¹ s⁻¹)

{"columns": ["binder", "outcome measure", "assay result"],
 "data": [
  ["antibody 23925 (antibody, human IgG1, kappa, L234A L235A, V domains shown, Fully human IgG1-LALA (L234A/L235A), kappa) VH: EVQLVESGGGLVQPGGSLRLSCAASGFTFSSYAMNWVRQAPGKGLEWVSTISNSGGTTYYADSVKGRFTISRDNSKDTLYLQMNSLRAEDTAVYYCAKAHYYARGYFDYWGQGTLVTVSS VL: DIQMTQSPSSVSASVGDRVTITCRASQGISSWLAWYQQKSGKAPKLLIYAASSLQIGVPSRFSGSGSGTDFTLTISSLQPEDFATYYCQQANSFPYTFGQGTKLEIKR", "kon", 190000]
]}
